- target: Neuropeptide FF receptor 1 (Homo sapiens)
- Sequence (Q9GZQ6 whole entry): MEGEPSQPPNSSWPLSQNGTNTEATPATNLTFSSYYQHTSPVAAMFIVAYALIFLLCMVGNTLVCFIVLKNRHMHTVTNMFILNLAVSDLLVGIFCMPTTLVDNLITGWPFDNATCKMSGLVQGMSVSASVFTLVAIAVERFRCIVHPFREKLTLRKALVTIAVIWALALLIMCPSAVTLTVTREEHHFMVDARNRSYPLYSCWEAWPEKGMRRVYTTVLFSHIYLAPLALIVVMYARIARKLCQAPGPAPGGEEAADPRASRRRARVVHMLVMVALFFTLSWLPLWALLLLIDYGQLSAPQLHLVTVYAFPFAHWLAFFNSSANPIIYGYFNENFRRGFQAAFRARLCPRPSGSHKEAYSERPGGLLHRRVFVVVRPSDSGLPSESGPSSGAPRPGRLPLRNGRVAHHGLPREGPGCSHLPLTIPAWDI
- run_description: Displacement of [3H]-FFRF-NH2 from human NPFFR1 expressed in CHO cell membrane by Topcount scintillation counting method
- Type: cell membranes
quantity_kind: Ki (nM)
Please respond with the number in nM and leave the unit unwritten.

Exam item: Indicate the recorded Ki value for this molecule: `NC1=NC=C(c2ccc(Cl)c(Cl)c2)CN1`
Marked response: 1

====

- target: Neuropeptide FF receptor 2 (Homo sapiens, UniProt Q9Y5X5)
- Sequence (Q9Y5X5 whole entry): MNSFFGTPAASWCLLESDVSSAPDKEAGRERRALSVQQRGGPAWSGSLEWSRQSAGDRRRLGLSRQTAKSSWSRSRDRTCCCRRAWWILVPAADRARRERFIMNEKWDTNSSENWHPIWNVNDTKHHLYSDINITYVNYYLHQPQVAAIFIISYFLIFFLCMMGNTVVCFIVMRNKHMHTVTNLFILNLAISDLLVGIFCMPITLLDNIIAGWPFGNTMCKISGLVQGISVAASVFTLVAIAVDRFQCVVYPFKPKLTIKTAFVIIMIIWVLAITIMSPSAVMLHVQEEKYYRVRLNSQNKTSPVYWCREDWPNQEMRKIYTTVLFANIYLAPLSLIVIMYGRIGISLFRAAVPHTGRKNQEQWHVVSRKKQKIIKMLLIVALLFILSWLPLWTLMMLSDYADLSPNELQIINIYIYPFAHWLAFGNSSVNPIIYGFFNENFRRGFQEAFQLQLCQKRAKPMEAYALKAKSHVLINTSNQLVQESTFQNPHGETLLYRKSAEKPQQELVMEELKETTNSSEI
- run_description: Agonist activity at human NPFFR2 expressed in CHO cells assessed as inhibition of forskolin-induced intracellular cAMP production incubated for 5 hrs by firefly/renilla luciferase reporter assay
- Assay type: functional, cell-based
quantity_kind: EC50 (nM)
Please respond with the number in nM and leave the unit unwritten.

# structure_smiles_string, unit_text, EC50
records = [
    ("COc1cc2c(c(OC)c1OC)-c1c(cc(C)c(C)c1OC)[C@@H](C(=O)Oc1ccccc1)[C@@](C)(O)[C@@H](C)C2", "nM", 1470),
]

Consider now this further compound.
Exam item: Indicate the recorded EC50 value for this compound: `COc1cc2c(c(OC)c1OC)-c1c(cc3c(c1OC)CC3)[C@@H](C(=O)Oc1ccccc1)[C@@](C)(O)[C@@H](C)C2`
Marked response: 2220

Where do these numbers come from? They come from ChEMBL document CHEMBL4765381.
